Catalogue of inhibition values
# Species on record: Oryctolagus cuniculus
# method: Inhibition of rabbit plasma Lp-PLA2 at 100 nM by liquid scintillation counting
# Assay type: cell-free
Quick note: unit goes after the number.

Answered cases to consult:
- smiles data: "CCN(CC)CCN(Cc1ccc(-c2ccc(C(F)(F)F)cc2)cc1)C(=O)Cn1c(SCc2ccc(F)cc2)nc(=O)c2c1CCC2"
  inhibition: "99%"
- smiles data: "O=c1nc(SCc2ccc(F)cc2)n(Cc2ncc(CN3CCCC3)n2Cc2ccc(-c3ccc(C(F)(F)F)cc3)cc2)c2c1CCC2"
  inhibition: "79%"
- smiles data: "CCCc1nnc(Cn2c(SCc3ccc(F)cc3)nc(=O)c3c2CCC3)n1Cc1ccc(-c2ccc(C(F)(F)F)cc2)cc1"
  inhibition: "88%"

Next up:
Noted for CN(Cc1ccc(F)cc1)Cc1nnc(Cn2c(SCc3ccc(F)cc3)nc(=O)c3c2CCC3)n1Cc1ccc(-c2ccc(C(F)(F)F)cc2)cc1 : its inhibition reads 90%
